biological target: Sphingosine kinase 2 (Homo sapiens) (UniProt Q9NRA0); conditions: at 0.1 µM;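 also: values reported as mean percent inhibition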
Sequence (Q9NRA0 whole entry): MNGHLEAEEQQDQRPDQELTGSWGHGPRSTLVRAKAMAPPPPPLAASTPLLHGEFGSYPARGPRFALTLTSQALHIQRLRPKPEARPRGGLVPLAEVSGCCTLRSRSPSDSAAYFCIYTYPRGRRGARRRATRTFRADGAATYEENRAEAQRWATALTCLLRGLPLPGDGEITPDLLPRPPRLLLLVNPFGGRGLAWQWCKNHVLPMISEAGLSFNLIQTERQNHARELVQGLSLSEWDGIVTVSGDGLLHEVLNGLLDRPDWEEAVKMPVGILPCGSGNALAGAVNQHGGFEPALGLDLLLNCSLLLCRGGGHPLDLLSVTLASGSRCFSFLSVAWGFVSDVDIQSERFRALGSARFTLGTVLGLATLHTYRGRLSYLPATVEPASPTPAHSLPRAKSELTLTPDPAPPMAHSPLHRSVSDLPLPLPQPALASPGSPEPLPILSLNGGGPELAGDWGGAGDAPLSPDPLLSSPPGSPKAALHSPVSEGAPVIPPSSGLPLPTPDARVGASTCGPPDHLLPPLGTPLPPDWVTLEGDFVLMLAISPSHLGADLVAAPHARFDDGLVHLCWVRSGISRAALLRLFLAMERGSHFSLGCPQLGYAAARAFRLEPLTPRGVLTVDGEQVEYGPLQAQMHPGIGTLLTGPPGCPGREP
Measure: inhibition

Sample records with inhibition:
Smiles repr: Cc1cc(O)cc(C)c1/C=C/c1cncc(C(=O)OC(C)(C)C)c1
inhibition: 0.51%
//
Smiles repr: Fc1cccc(COc2ccc(Nc3ncncc3C#Cc3ccccc3)cc2Cl)c1
inhibition: -1.37%
//
Smiles repr: CN(C)CCNC(=O)Nc1ccc(N(C)c2ccnc(Nc3ccc(CS(C)(=O)=O)cc3)n2)cc1
inhibition: -0.06%
//
Smiles repr: COc1c(C(N)=O)cc(-c2ccc(Cl)cc2)cc1-c1ccc(S(N)(=O)=O)cc1
inhibition: -0.78%
//
Smiles repr: c1ccc(-c2n[nH]cc2-c2ccnc(-c3ccc(OCCn4ccnc4)cc3)c2)nc1
inhibition: -0.27%

[in] Name the recorded inhibition for CN1CCC(n2cnc(-c3ccc(F)cc3)c2-c2ccnc(NCCO)n2)CC1 .
[out] 0.37%

[in] Follow-up item: O=C1Nc2ccccc2/C1=C1\CCc2cc(O)ccc21
[out] -0.36%

###

target: Glycogen synthase kinase-3 alpha (Homo sapiens) (UniProt P49840); settings: at 1 µM;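 also: each figure is a mean percent inhibition of GSK3A activity, from a screen of the GSK published kinase inhibitor set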
Sequence (P49840 2-483 limits assumed): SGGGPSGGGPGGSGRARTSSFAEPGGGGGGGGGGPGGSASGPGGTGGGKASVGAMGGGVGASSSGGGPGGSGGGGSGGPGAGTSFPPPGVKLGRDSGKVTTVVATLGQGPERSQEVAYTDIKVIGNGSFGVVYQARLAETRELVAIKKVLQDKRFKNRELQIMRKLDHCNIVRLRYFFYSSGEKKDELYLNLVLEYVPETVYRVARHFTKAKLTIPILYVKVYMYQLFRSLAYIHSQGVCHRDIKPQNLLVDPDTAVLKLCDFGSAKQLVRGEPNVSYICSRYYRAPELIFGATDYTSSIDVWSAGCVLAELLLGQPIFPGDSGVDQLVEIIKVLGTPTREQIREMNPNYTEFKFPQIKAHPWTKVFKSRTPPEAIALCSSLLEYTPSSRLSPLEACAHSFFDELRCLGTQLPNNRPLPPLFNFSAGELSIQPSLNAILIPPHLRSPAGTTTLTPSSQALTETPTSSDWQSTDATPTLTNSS
Measure: inhibition

Sample records with inhibition:
Smiles repr: CNC(=O)c1cncc(/C=C/c2ccccc2C)c1
inhibition: 12.3%

Smiles repr: NC(=O)c1ccc2c(-c3ccnc(NCCCO)n3)c(-c3ccc(F)cc3)nn2c1
inhibition: 19.6%

Smiles repr: c1ccc(-c2n[nH]cc2-c2ccnc(-c3ccc(OCCn4ccnc4)cc3)c2)nc1
inhibition: 3.28%

Smiles repr: COc1cccc(Nc2nccc(-c3cnn4ncccc34)n2)c1
inhibition: 79.5%

Smiles repr: COc1cc(N2CCN(C(C)C)CC2)ccc1Nc1nc(Nc2cccc(F)c2C(=O)O)c2cc[nH]c2n1
inhibition: 6.33%

[in] Name the recorded inhibition for Cc1ccc(-c2cc3c(NC(=O)C4CC4)ncnc3o2)cc1 .
[out] 48.7%

[in] Follow-up item: CN(c1ccc(NC(=O)NCCN2CCOCC2)cc1)c1ccnc(Nc2ccc(CS(C)(=O)=O)cc2)n1
[out] 8.02%

[in] Follow-up item: COc1ccc2ncn(-c3cc(O[C@H](C)c4ccccc4C(F)(F)F)c(C(N)=O)s3)c2c1
[out] 4.58%

[in] Follow-up item: CNC(=O)c1sc(-n2cnc3cc(OC)c(OC)cc32)cc1OCc1ccccc1C(F)(F)F
[out] 5.93%

[in] Follow-up item: COC(=O)Nc1nc2cc(Oc3ccc(NC(=O)Nc4ccccc4)cc3)ccc2[nH]1
[out] 8.26%

[in] Follow-up item: Cc1nnc(-c2cccc(-c3ccc(C(=O)NCC4CC4)cc3)c2)o1
[out] 14.8%

[in] Follow-up item: OCCCNc1nccc(-c2c(-c3ccc(F)cc3)nn3cc(C(F)(F)F)ccc23)n1
[out] 18.2%

[in] Follow-up item: Cc1cc(O)cc(C)c1/C=C/c1cncc(C(N)=O)c1
[out] 4.08%

[in] Follow-up item: COc1cc(N2CCN(C(C)C)CC2)ccc1Nc1nc(Nc2cccc3ncccc23)c2cc[nH]c2n1
[out] 3.49%

###

test system: Proto-oncogene tyrosine-protein kinase receptor Ret (Homo sapiens), P07949 [V804L]; conditions: at 0.1 µM
Sequence (P07949 whole entry V804L): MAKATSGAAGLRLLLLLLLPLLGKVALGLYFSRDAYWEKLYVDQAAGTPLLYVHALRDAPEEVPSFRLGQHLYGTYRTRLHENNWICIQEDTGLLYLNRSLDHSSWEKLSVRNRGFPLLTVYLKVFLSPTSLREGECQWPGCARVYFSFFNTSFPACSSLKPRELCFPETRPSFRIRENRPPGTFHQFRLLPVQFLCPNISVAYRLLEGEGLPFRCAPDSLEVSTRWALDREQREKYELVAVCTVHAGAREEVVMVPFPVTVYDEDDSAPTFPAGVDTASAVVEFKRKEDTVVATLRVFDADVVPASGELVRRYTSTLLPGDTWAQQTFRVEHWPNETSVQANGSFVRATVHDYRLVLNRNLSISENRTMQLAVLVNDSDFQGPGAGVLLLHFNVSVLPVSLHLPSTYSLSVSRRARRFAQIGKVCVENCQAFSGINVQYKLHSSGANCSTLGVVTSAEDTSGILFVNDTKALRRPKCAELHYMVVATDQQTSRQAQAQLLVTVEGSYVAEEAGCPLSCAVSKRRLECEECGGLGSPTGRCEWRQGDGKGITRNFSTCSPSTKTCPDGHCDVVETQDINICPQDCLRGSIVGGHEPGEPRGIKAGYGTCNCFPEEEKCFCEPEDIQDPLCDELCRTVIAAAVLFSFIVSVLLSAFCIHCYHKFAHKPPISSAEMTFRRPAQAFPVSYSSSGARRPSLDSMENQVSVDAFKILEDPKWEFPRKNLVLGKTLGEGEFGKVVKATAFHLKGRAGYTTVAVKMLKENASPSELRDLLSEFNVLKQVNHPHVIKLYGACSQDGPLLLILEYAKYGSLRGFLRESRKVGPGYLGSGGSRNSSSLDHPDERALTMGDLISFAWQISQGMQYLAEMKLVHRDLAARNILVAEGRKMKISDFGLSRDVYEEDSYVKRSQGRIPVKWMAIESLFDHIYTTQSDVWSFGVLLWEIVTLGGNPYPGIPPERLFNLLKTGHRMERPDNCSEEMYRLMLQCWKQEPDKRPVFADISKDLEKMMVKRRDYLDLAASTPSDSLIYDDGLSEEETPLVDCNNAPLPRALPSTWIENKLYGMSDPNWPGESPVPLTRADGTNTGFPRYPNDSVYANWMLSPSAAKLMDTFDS
# cutoff 5% applies to inhibition; >= gives true, < gives false

Compound: Cc1c2ccc(N(C)c3ccnc(Nc4cccc(S(N)(=O)=O)c4)n3)cc2nn1C
Class label: true
--
Compound: CN1CCC(n2cnc(-c3ccc(F)cc3)c2-c2ccnc(NCCO)n2)CC1
Class label: false
--
Compound: COc1cc(Nc2ncc(-c3ccccc3)o2)cc(OC)c1
Class label: false
--
Compound: Fc1ccc(Nc2nccc(-c3c(-c4ccc(C(F)(F)F)cc4)nn4ncccc34)n2)cc1F
Class label: false
--
Compound: COC(=O)Nc1nc2cc(Oc3ccc(NC(=O)Nc4ccccc4)cc3)ccc2[nH]1
Class label: true
--
Compound: CS(=O)(=O)Nc1ccc(-c2cc(-c3ccccc3)cc(C(N)=O)c2N)cc1
Class label: false
--
Compound: Cc1cc(O)cc(C)c1/C=C/c1cncc(C(=O)OC(C)(C)C)c1
Class label: false
--
Compound: CC(C)c1ccc(-c2cc(-c3c[nH]nc3-c3ccccn3)ccn2)cc1
Class label: false
--
Compound: COC(=O)Nc1nc2ccc(Oc3ccc(NC(=O)Nc4cc(C(F)(F)F)ccc4F)cc3)cc2s1
Class label: true
--
Compound: Cn1c(-c2nonc2N)nc2cnccc21
Class label: false

[in] Item CN(c1ccc(NC(=O)NCCN2CCOCC2)cc1)c1ccnc(Nc2ccc(CS(C)(=O)=O)cc2)n1 with inhibition of 5% or above?
[out] true

[in] Follow-up item: COc1ccccc1-c1cc(/C=C2\C(=O)Nc3ncc(Br)cc32)cc(Br)c1O
[out] true

[in] Follow-up item: O=C(O[C@H]1CN[C@H](C#Cc2cc3ncnc(Nc4ccc5c(cnn5Cc5ccccc5)c4)c3s2)C1)N1CCOCC1
[out] false

[in] Follow-up item: CS(=O)(=O)CCNCc1ccc(-c2ccc3ncnc(Nc4ccc(OCc5ccccc5)cc4)c3c2)o1
[out] false

[in] Follow-up item: CC1=C(C(=O)Nc2ccc3[nH]ncc3c2)C(c2ccc(F)cc2)N=C(c2ccc(C(F)(F)F)nc2)N1 (stereo not given)
[out] true

[in] Follow-up item: COc1ccc(Nc2ncc(-c3ccccc3)o2)cc1OC
[out] false

[in] Follow-up item: COc1cccc(-n2ncc3c(N/N=C/c4ccc(C(=O)NCCN(C)C)cc4)ncnc32)c1
[out] true

[in] Follow-up item: FC(F)(F)CNc1nccc(-c2cnn3ncccc23)n1
[out] false

[in] Follow-up item: CNC(=O)c1sc(-n2cnc3cc(OC)c(OC)cc32)cc1OCc1ccccc1C(F)(F)F
[out] true

###

target: Ribosomal protein S6 kinase alpha-1 (Homo sapiens) (UniProt Q15418); conditions: at 0.1 µM
Sequence (Q15418 whole entry): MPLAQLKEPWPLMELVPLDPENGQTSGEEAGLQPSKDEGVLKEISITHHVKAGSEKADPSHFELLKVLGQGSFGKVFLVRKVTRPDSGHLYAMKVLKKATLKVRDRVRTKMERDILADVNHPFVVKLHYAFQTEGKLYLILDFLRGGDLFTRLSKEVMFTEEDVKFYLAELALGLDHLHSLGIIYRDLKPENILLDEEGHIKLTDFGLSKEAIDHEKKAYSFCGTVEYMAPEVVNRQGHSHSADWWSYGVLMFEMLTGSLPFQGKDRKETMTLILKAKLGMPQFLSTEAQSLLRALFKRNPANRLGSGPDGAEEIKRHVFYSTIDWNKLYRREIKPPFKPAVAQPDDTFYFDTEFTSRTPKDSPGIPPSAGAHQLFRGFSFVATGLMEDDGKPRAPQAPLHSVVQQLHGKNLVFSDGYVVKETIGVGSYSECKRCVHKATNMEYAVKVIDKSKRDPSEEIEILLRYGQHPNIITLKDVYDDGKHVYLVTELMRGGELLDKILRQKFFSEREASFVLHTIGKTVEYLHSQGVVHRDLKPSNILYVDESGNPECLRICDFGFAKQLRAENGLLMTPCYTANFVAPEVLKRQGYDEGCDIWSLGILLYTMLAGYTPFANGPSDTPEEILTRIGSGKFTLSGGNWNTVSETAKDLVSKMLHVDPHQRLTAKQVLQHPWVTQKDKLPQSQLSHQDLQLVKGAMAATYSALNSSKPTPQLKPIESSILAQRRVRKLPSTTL
Listed next: entries and their corresponding inhibition.
Quick reminder: number only, in %, skip the unit.

Sample records with inhibition:
Smiles repr: COc1ccccc1-c1cc(/C=C2\C(=O)Nc3ncc(Br)cc32)cc(Br)c1O
Measured target: Ribosomal protein S6 kinase alpha-1 (Homo sapiens) (UniProt Q15418)
Measured number: 0.44
//
Smiles repr: COc1ccc(Nc2ncc(-c3ccccc3)o2)cc1OC
Measured target: Ribosomal protein S6 kinase alpha-1 (Homo sapiens) (UniProt Q15418)
Measured number: 0.28
//
Smiles repr: Cc1ccc(-c2cc3c(NC(=O)C4CC4)ncnc3o2)cc1
Measured target: Ribosomal protein S6 kinase alpha-1 (Homo sapiens) (UniProt Q15418)
Measured number: 2.52
//
Smiles repr: CCn1c(-c2nonc2N)nc2cncc(C(=O)NCCNC)c21
Measured target: Ribosomal protein S6 kinase alpha-1 (Homo sapiens) (UniProt Q15418);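 also: values are mean percent inhibition of RSK1 measured in the GSK PKIS kinase inhibitor set screen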
Measured number: 62.3

[in] Name the recorded inhibition for O=C(Nc1n[nH]c2nnc(-c3cccnc3)cc12)C1CC1 .
[out] 0.83

[in] Follow-up item: COc1c(C(N)=O)cc(-c2ccc(Cl)cc2)cc1-c1ccc(S(N)(=O)=O)cc1
[out] 1.96

###

biological target: Receptor tyrosine-protein kinase erbB-2 (Homo sapiens) (UniProt P04626); details: at 1 µM
Sequence (P04626 whole entry): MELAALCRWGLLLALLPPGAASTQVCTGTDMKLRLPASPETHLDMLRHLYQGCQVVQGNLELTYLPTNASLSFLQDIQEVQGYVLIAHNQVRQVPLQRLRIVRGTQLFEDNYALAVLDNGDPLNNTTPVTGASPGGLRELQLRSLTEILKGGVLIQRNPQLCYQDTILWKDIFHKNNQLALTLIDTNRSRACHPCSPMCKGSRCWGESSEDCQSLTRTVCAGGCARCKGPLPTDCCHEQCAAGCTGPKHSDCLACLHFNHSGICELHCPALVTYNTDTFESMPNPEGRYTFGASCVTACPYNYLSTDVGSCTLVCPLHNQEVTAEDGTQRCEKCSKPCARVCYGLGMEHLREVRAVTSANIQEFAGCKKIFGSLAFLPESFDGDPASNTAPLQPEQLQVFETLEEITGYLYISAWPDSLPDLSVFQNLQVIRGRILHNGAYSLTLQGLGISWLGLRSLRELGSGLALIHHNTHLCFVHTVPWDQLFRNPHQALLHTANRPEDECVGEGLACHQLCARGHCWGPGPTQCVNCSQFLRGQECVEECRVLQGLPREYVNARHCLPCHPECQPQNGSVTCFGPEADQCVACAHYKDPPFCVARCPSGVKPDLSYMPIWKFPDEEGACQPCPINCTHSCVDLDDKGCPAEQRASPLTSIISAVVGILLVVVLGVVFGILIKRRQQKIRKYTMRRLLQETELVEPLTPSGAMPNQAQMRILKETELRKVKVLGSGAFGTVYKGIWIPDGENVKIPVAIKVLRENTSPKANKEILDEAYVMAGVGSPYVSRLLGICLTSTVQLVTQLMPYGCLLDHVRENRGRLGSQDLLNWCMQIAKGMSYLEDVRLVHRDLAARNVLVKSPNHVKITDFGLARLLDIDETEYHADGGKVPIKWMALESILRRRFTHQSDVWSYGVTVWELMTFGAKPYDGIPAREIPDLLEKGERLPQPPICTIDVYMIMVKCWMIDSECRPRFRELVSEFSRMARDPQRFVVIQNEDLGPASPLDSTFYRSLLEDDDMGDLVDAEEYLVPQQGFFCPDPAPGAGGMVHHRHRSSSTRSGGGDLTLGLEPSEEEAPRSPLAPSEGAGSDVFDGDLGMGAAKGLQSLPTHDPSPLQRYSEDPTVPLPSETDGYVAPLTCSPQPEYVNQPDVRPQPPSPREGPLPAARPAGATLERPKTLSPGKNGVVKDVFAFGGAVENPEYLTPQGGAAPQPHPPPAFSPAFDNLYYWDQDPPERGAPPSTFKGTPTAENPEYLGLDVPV
Description: GSK_PKIS: ERBB2 mean inhibition at 1 uM [Nanosyn]
Listed next: entries and their corresponding inhibition.
Quick reminder: number only, in %, skip the unit.

Sample records with inhibition:
Smiles repr: CS(=O)(=O)CCNCc1ccc(-c2ccc3ncnc(Nc4ccc(OCc5ccccc5)cc4)c3c2)o1
Unit info: %
inhibition: 73
//
Smiles repr: N#Cc1ccc2c(-c3ccnc(NC4CC4)n3)c(-c3ccc(F)cc3)nn2c1
Unit info: %
inhibition: 5
//
Smiles repr: COc1ccc2ncn(-c3cc(O[C@H](C)c4ccccc4C(F)(F)F)c(C(N)=O)s3)c2c1
Unit info: %
inhibition: -1.72
//
Smiles repr: CS(=O)(=O)CCNCc1ccoc1-c1ccc2ncnc(Nc3ccc(OCc4ccccc4)cc3)c2c1
Unit info: %
inhibition: 50.9

[in] Name the recorded inhibition for Cc1cc(O)cc(C)c1/C=C/c1cncc(C(N)=O)c1 .
[out] -0.51

[in] Follow-up item: Cc1cc(O)cc(C)c1/C=C/c1cncc(C(=O)OC(C)(C)C)c1
[out] 2.48

[in] Follow-up item: CC1(C)CC(n2cnc(-c3ccc(F)cc3)c2-c2ccnc(N)n2)CC(C)(C)N1
[out] -3.03

[in] Follow-up item: COc1ccc(-c2nn3ncccc3c2-c2ccnc(Nc3ccc(F)c(F)c3)n2)cc1
[out] 5.88

[in] Follow-up item: COc1cccc(Nc2nccc(-c3cnn4ncccc34)n2)c1
[out] 1.64

[in] Follow-up item: O=C(O[C@H]1CN[C@H](C#Cc2cc3ncnc(Nc4ccc(OCc5cccc(F)c5)c(Cl)c4)c3s2)C1)N1CCOCC1
[out] 52.8

[in] Follow-up item: CN(c1ccc(NC(=O)NCCN2CCOCC2)cc1)c1ccnc(Nc2ccc(CS(C)(=O)=O)cc2)n1
[out] 4.12

[in] Follow-up item: COc1cc(N2CCN(C(C)C)CC2)ccc1Nc1nc(Nc2cccc(F)c2C(=O)O)c2cc[nH]c2n1
[out] 5.93
